Consider the following compounds and their measured IC50 at 72 h readings.
Assay: in vitro
Conditions: human, WI-38 cells
Description: Cytotoxicity against human WI-38 cells assessed as inhibition of cell growth incubated for 72 hrs by MTT assay

structure_as_smiles: Cc1ccc(C(=O)Nc2ccc(CNC(=O)OCc3cccnc3)cc2)c(N2CCCC2)c1
IC50 at 72 h: > 100 µM
--
structure_as_smiles: O=C(NCc1ccc(NC(=O)c2cc(Br)ccc2N2CCCC2)cc1)OCc1cccnc1
IC50 at 72 h: > 100 µM
--
structure_as_smiles: O=C(NCc1ccc(NC(=O)c2cc(C(F)(F)F)ccc2N2CCCC2)cc1)OCc1cccnc1
IC50 at 72 h: > 100 µM
--
structure_as_smiles: Cc1cccc(C(=O)Nc2ccc(CNC(=O)OCc3cccnc3)cc2)c1N1CCCC1
IC50 at 72 h: > 100 µM

Kindly review the next compound as well.
Problem: Which IC50 at 72 h reading was recorded for the compound COc1ccc(N2CCCC2)c(C(=O)Nc2ccc(CNC(=O)OCc3cccnc3)cc2)c1 ?
Result: 35.6 µM
